Numbers sourced from patent US5391540A.

tested on: Vele; test: plant injury after spraying emerged plants (Table D); type: in vivo; set-up: scale not given here; settings: 1.1210 kg/ha
Readout Type: plant injury rating, Vele
Field format: numeric only.

Sample Smiles	plant injury rating, Vele
COC(=O)c1c(OC)nc(C(F)(F)Cl)c(C(=O)OC)c1CC(C)C	1
COC(=O)c1c(OC)nc(C(F)(F)F)c(C2=NCCCS2)c1CC(C)C	2
COC(=O)c1c(OC)nc(C(F)(F)F)c(C2SCCS2)c1CC(C)C	2
COC(=O)c1c(OC)nc(C(F)(F)F)c(C(=O)n2ccc(F)n2)c1C1CCC1	2
COC(=O)c1c(OC)nc(C(F)(F)F)c(C(=O)SC)c1C1CCC1	3
COC(=O)c1c(OC)nc(C(F)(F)F)c(C(=O)NCCCBr)c1CC(C)C	0

What value of measured plant injury rating, Vele is listed for `COC(=O)c1c(O)nc(C(F)(F)F)c(C(=O)OC)c1CC(C)C` ?
2

What value of measured plant injury rating, Vele is listed for `COC(=O)c1c(OC)nc(C(F)(F)F)c(C(=O)Cl)c1CC1CC1` ?
0

What value of measured plant injury rating, Vele is listed for `COC(=O)c1c(OC)nc(C(F)(F)F)c(C(=O)n2cccn2)c1CC1CC1` ?
3

* * *

Some compounds, each annotated with its measured inhibition at 11200 g/ha.
test system: Common Lambsquarters; test: Pre-emergent herbicidal activity (Table A); assay type: in vivo; conditions: Chenopodium album, pre-emergence, Colq, 11.2 kg/ha, 10-14 days, read-out: herbicidal rating (% inhibition)

Previously resolved entries follow.
Sample Smiles	inhibition at 11200 g/ha
COC(=O)c1c(OC)nc(C(F)(F)F)c(C(=O)N2CCOCC2)c1CC(C)C	75 to 100%
COC(=O)c1c(OC)nc(C(F)(F)F)c(-n2cccc2)c1CC(C)C	75 to 100%

What value of measured inhibition at 11200 g/ha is listed for `COc1nc(C(F)(F)F)c(C(=O)n2cccn2)c(C2CCC2)c1C(=O)n1cccn1` ?
75 to 100%

* * *

system: Quackgrass; assay: Pre-emergent herbicidal activity (Table A); type: in vivo; details: pre-emergence, Rhqg, 11.2 kg/ha, 10-14 days, read-out: herbicidal rating (% inhibition)
Readout Type: inhibition at 11200 g/ha

What value of measured inhibition at 11200 g/ha is listed for COC(=O)c1c(OC)nc(C(F)(F)F)c(C2=NCCS2)c1CC(C)C [Compound 50] ?
75 to 100%

What value of measured inhibition at 11200 g/ha is listed for COc1nc(C(F)(F)F)c(C2=NCCS2)c(CC(C)C)c1C(=O)SC [Compound 54] ?
75 to 100%

What value of measured inhibition at 11200 g/ha is listed for COC(=O)c1c(OC)nc(C(F)(F)F)c(C2=NCC(C)S2)c1CC(C)C (stereo not drawn) [Compound 64] ?
50 to 74%

What value of measured inhibition at 11200 g/ha is listed for CCOc1nc(C(F)(F)F)c(C(=O)OC)c(CC(C)C)c1C(=O)OC [Compound 6] ?
75 to 100%

What value of measured inhibition at 11200 g/ha is listed for CCCOc1nc(C(F)(F)F)c(C(=O)OC)c(CC(C)C)c1C(=O)OCC [Compound 7] ?
0 to 24%

What value of measured inhibition at 11200 g/ha is listed for COC(=O)c1c(OC)nc(C(F)(F)F)c(C(=O)OC)c1C1CCC1 [Compound 48] ?
75 to 100%

What value of measured inhibition at 11200 g/ha is listed for COC(=O)c1c(OCC#N)nc(C(F)(F)F)c(C(=O)OC)c1CC(C)C [Compound 80] ?
25 to 49%

What value of measured inhibition at 11200 g/ha is listed for CCOc1nc(C(F)(F)F)c(C(=O)OC)c(CC(C)C)c1C(=O)N(C)C [Compound 17] ?
0 to 24%

What value of measured inhibition at 11200 g/ha is listed for COC(=O)c1c(OC)nc(C(F)(F)F)c(N=CN(C)C)c1CC(C)C [Compound 62] ?
75 to 100%

* * *

Some compounds, each annotated with its measured plant injury rating, Cocw.
test system: Cocw; assay: plant injury after spraying emerged plants (Table D); format: in vivo; design: scale not given here; details: 5.6050 kg/ha
Field format: numeric only.

Previously resolved entries follow.
Sample Smiles	Numeric Readout
COC(=O)c1c(OC)nc(C(F)(F)F)c(C(=O)n2ccc(F)n2)c1C1CCC1	3
COC(=O)c1c(OC)nc(C(F)(F)F)c(C(=O)Cl)c1CC1CC1	0
COC(=O)c1c(OC)nc(C(F)(F)F)c(C(=O)n2cccn2)c1CC1CC1	2

What value of measured plant injury rating, Cocw is listed for `COC(=O)c1c(OC)nc(C(F)(F)F)c(C(=O)SC)c1C1CCC1` ?
3

* * *

Some molecules, each annotated with its measured plant injury rating, Bygr.
system: Bygr; assay: plant injury after spraying emerged plants (Table D); type: in vivo; set-up: scale not given here; conditions: 5.6050 kg/ha
Field format: numeric only.

Sample Smiles	Measured Target	plant injury rating, Bygr
COC(=O)c1c(OC)nc(C(F)(F)F)c(C(=O)NCCCBr)c1CC(C)C	Bygr	0
COC(=O)c1c(OC)nc(C(F)(F)F)c(C(=O)Cl)c1CC1CC1	Bygr	0
COC(=O)c1c(OC)nc(C(F)(F)F)c(C(=O)n2cccn2)c1CC1CC1	Bygr	1
COC(=O)c1c(OC)nc(C(F)(F)Cl)c(C(=O)OC)c1CC(C)C	Bygr	1

Would you kindly look at the next entry?
What value of measured plant injury rating, Bygr is listed for `COC(=O)c1c(OC)nc(C(F)(F)F)c(C(=O)SC)c1C1CCC1` ?
2

* * *

tested on: Quackgrass; test: Pre-emergent herbicidal activity (Table A); type: in vivo; settings: pre-emergence, Rhqg, 11.2 kg/ha, 10-14 days, read-out: herbicidal rating (% inhibition)
Readout Type: inhibition at 11200 g/ha

Sample Smiles	inhibition at 11200 g/ha
COC(=O)c1c(OC)nc(C(F)(F)F)c(C(=O)N2CCSC2)c1CC(C)C	50 to 74%
COC(=O)c1c(C(F)(F)F)nc(OC)c(C(=O)SC)c1CC(C)C	75 to 100%
COC(=O)c1c(OC)nc(C(F)(F)F)c(C(=O)OC)c1C(C)C	75 to 100%
CCOC(=O)c1c(OCC)nc(C(F)(F)F)c(C(=O)OCC)c1CC(C)C	0 to 24%
COC(=O)c1c(OC)nc(C(F)F)c(C(=O)OC)c1CC(C)C	75 to 100%
COC(=O)c1c(C(F)(F)F)nc(OC)c(-n2cccc2)c1CC(C)C	50 to 74%
CCCc1c(C(=O)OC)c(OC)nc(C(F)(F)F)c1C(=O)OC	75 to 100%
COC(=O)c1c(OC)nc(C(F)(F)F)c(C(=O)OC)c1CC1CC1	75 to 100%

What value of measured inhibition at 11200 g/ha is listed for `COc1nc(C(F)(F)F)c(C(=O)SC)c(C2CC2)c1C(=O)SC` ?
75 to 100%

What value of measured inhibition at 11200 g/ha is listed for `CN=C(SC)c1c(OC)nc(C(F)(F)F)c(C(=O)OC)c1CC(C)C` ?
75 to 100%

What value of measured inhibition at 11200 g/ha is listed for `C#CCOC(=O)c1c(C(F)(F)F)nc(OC)c(C(=O)OC)c1CC(C)C` ?
50 to 74%

What value of measured inhibition at 11200 g/ha is listed for `CCCCOC(=O)c1c(C(F)(F)F)nc(OC)c(C(=O)OC)c1CC(C)C` ?
75 to 100%

What value of measured inhibition at 11200 g/ha is listed for `C#CCOc1nc(C(F)(F)F)c(C(=O)OC)c(CC(C)C)c1C(=O)OC` ?
75 to 100%

What value of measured inhibition at 11200 g/ha is listed for `COc1nc(C(F)(F)F)c(C(=O)SC)c(CC(C)C)c1C(=O)SC` ?
75 to 100%

What value of measured inhibition at 11200 g/ha is listed for `CCOC(=O)c1c(C(F)(F)F)nc(OC)c(C(=O)OC)c1CC(C)C` ?
75 to 100%

What value of measured inhibition at 11200 g/ha is listed for `CCOc1nc(C(F)(F)F)c(C(=O)n2cccn2)c(CC(C)C)c1C(=O)OC` ?
75 to 100%

What value of measured inhibition at 11200 g/ha is listed for `CCOC(=O)c1c(OCC)nc(C(F)(F)F)c(C(=O)OC)c1CC(C)C` ?
75 to 100%

What value of measured inhibition at 11200 g/ha is listed for `COC(=O)c1c(O)nc(C(F)(F)F)c(C(=O)OC)c1CC(C)C` ?
0 to 24%

* * *

Some compounds, each annotated with its measured plant injury rating, Cobu.
tested on: Cobu; assay: plant injury after spraying emerged plants (Table D); assay type: in vivo; parameters: scale not given here; conditions: 0.2803 kg/ha
Field format: numeric only.

Compound	Readout Type	Numeric Readout
COC(=O)c1c(OC)nc(C(F)(F)F)c(C(=O)NCCCBr)c1CC(C)C [Compound 97]	plant injury rating, Cobu	0

What value of measured plant injury rating, Cobu is listed for COC(=O)c1c(OC)nc(C(F)(F)F)c(C(=O)n2cccn2)c1CC1CC1 [Compound 116] ?
1
